# credit: the domain aggregation screens of Martell et al. (2025)

This listing pairs sequences with measured soluble fraction (log2).
Experimental Details: soluble fraction after stress (log2 fold change); higher = more stays soluble; pooled small domains, quantitative proteomics
Conditions: stress: pH 4
Measured Metric: soluble fraction (log2)

                             chain_sequence  measured_value
0  HMVPVVGTTIPHEFIGKFGSARVMLKPAVEGSGVIAGGSARAVLELAGYKDIKTKVLGTNNPRNVVYATMN           0.196
1  HMKDMKISTQNILKELATNYPDQTAFRKNVIESTAKSMGYTGKDFYPMLTAETRVKIGTYDLSALLQTV          -0.197
2  HMVRGNLAEELLKLREEEGISFQEAGARSGIARSTISQVVNQGLRLKPNQEESLWRVIEEVRGVKER         -0.0263
3  HMTNEQLSKAKSWVQIAVYAAEKLYGAGNGDQKLVYAEEILRKHGIRLDTATLKAMIDAQIKEMEN           0.131
4  HMFAATGVVNAPSGLVLRETASKGGNPLATVPDKAQVEIVEEDGEWYKVKVNEQTGYLFAEFVNKTE           -0.13
5  HMAKRTVPSVAEAIDNFRRQHRRMPSYAEMLPLLGVRSKSVVHFWINKLLENGLLEKDDKGYLTPGS          -0.241
6  HMQISDVSLIAKVIDDVIDNNVKSVSDYLEGNLNVLRFLVGQVMKETKGKANPQKATELLQEKLESLNN          -0.386
7  HMTRILTEDDIVNFLIRQPDTAYIIAKSFNENERKVKELLDLLIKKNKVREEIVNGVVSYAVN          -0.208

----------
This listing pairs sequences with measured soluble fraction (log2).
Experimental Details: soluble fraction after stress (log2 fold change); higher = more stays soluble; pooled small domains, quantitative proteomics
Conditions: stress: pH 4
Measured Metric: soluble fraction (log2)

>>> print(df.to_string())
                              chain_sequence          measured_metric  measured_value
 0  HMNPNYIKKLREKNQLTQEYLAAQIGVSRPTYAQIEQGQRGLTVTEAKKMADIFSLALDDFLAEKN  soluble fraction (log2)          -0.442
 1  HMSREEFLTELRKALQGRVSQQTVNDNLRYYEEYILTESHKGKTEAEVIAELGNPRLLAKSIIDAENAT  soluble fraction (log2)         -0.0903
 2  HMDEWDPAILYVGLDYEDAAQIATRLATSGVPYRLSPDGTMITVPDDQVNNMRLTLAGEGFPH  soluble fraction (log2)           -1.12
 3  HMGASTQLVEIKNAYENGEWQNVIDLAGKLHEKYNGSEEDKEAQEMAKNSQSKLDEAAAAKAAEEA  soluble fraction (log2)           0.184
 4  HMGASYSQFLDQVDSGNVQKVAFGGDMRGGTSQLTYTTRGGQSSTITAPFDRDLINVLRTKNVEIVQEEP  soluble fraction (log2)          0.0587
 5  HMEKPYTPPANLNEIQSYEELSKAVQYYNKVKDAATTDADRLKAQQSIDTLEDMRKAWDAASST  soluble fraction (log2)          -0.312
 6  HMAIEMSTITKRVTSTGEIRYRALLQIRREDVNYTESRTFSKKSLAEAWLKKREVELEANPELLHQ  soluble fraction (log2)          ≥ 0.43
 7  HMVVVPPPATPKPGDVTGDNKINGYDLSILLSNWKRPGATLAQGDLNKDGVVNGLDLSIMLLNWG  soluble fraction (log2)          0.0857
 8  HMEQAAQPQTGFDPRRLKAGDAVHLLALDQRGVLLEDPKPGAESAPVSVGVAGVRVVVPLREMEALPAG  soluble fraction (log2)         -0.0942
 9  HMSNTPHSREVLLEMDAVRRLLAVGEEKGEVDRADLQGAFEEAELGRGDLDGVLSILREYDVPLAR  soluble fraction (log2)           -0.15
10  HMSINQTIEGKKQGYWIIYGNMRNLQEYLSNEVIEEGQFKNSRKEGVWRKYFPGGQMKSEITYINGRP  soluble fraction (log2)           -0.93
11  HMDPDDEILINIMTKLLTEKQIIIKNKEIFNFLLKRINRTYEEVYNLINKMDKLSLEKKKQLTIPSIKEL  soluble fraction (log2)           -1.52
12  HMLMLTPGQIAQTLDVSTATVRRWSARYARHLSPNTPGKKRSYTVDDLAVLTRVRDLSATGTPLAQIDQAL  soluble fraction (log2)           0.151
13  HMSTVISPLPGNIIKVLVPEGKSVKRGDTILTIESMKMENSIKAAYDGVVKKIYVQQAQIVMQGDPLFDL  soluble fraction (log2)           -1.05
14  HMNADLDIQNVNGNTPLWEAVMRYRGDGFFIEQLLKNGANPDIKNNYGVSPKSLARTIANYDVRRFFN  soluble fraction (log2)          -0.333
15  HMDQNVSVPKLAGLQVEEANAILKSKGLHIEIIDSIYQKDAVPGAIIEQVPEENSKVKKGRAIYVSVYAK  soluble fraction (log2)          0.0139
16  HMKDRDISNAVLNILSKDSDHNYNYKQIASVLGVKDPFVRKRIVSVLAQLTKNGQLEEISRGKYQIKN  soluble fraction (log2)          -0.694
